quantity.measured: log10 of IC50 (log10 of the value in µM)
Reminder: these figures are log10 of reported IC50, in µM before transformation.

Param readout= log10 of IC50; system= M. tuberculosis RecA intein (Mycobacterium tuberculosis, UniProt P9WHJ3); entry= `Oc1ccc(Br)cc1CNc1cccc(C(F)(F)F)c1` ; returns value.
1.08

Param readout= log10 of IC50; system= M. tuberculosis RecA intein (Mycobacterium tuberculosis, UniProt P9WHJ3); entry= `O=C(Oc1ccc(C=Nc2ccc(F)cc2)cc1)c1ccco1` ; returns value.
1.48

Param readout= log10 of IC50; system= M. tuberculosis RecA intein (Mycobacterium tuberculosis, UniProt P9WHJ3); entry= `COc1cccc(N(NC(=O)C(O)(c2cccc(C(F)(F)F)c2)c2cccc(C(F)(F)F)c2)C(=O)CCl)c1` ; returns value.
0.30

Param readout= log10 of IC50; system= M. tuberculosis RecA intein (Mycobacterium tuberculosis, UniProt P9WHJ3); entry= `O=S(=O)(c1ccc(Br)cc1)c1snnc1-c1ccccc1` ; returns value.
0.60

Param readout= log10 of IC50; system= M. tuberculosis RecA intein (Mycobacterium tuberculosis, UniProt P9WHJ3); entry= `Cn1cc(C(=O)c2cccc(Cl)c2Cl)cc1C(=O)C(Cl)(Cl)Cl` ; returns value.
0.70

###

- assayed.target: M. tuberculosis RecA intein (Mycobacterium tuberculosis)
- Sequence (P9WHJ3 with tags, fused parts or gaps): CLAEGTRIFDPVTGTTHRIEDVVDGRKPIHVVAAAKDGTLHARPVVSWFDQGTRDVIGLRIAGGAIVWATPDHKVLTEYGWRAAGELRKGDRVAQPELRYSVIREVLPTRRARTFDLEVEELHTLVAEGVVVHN
Assign labels as follows, please: T for IC50 below 5 µM; F for IC50 equal to or exceeding 5 µM.

State whether 5 µM exceeds IC50 recorded for COc1ccc(NC(=O)C(Cl)=C(Cl)[S+]([O-])Cc2ccc(C)cc2)cn1 (stereo not drawn) .
T

State whether 5 µM exceeds IC50 recorded for `Cc1cc(S(=O)(=O)c2ccc(C(F)(F)F)cc2[N+](=O)[O-])c(Cl)cc1Cl` .
T

State whether 5 µM exceeds IC50 recorded for `N#CC(N)=C(C#N)NCc1ccccc1Sc1ccc(Cl)cc1` .
F

State whether 5 µM exceeds IC50 recorded for `O=C(Oc1ccc(Br)cc1)c1ccco1` .
F

State whether 5 µM exceeds IC50 recorded for `Cc1cc(Oc2c([N+](=O)[O-])cc(C(F)(F)F)cc2[N+](=O)[O-])ccc1Cl` .
F

State whether 5 µM exceeds IC50 recorded for `CCOC(=O)c1cc(C#N)c(Sc2nnc(SCC3CC3)s2)nc1C(F)(F)F` .
T

State whether 5 µM exceeds IC50 recorded for `CCOC(=O)c1cnc2c(F)ccc(F)c2c1Oc1cncc(Cl)c1` .
T

###

- assayed.target: M. tuberculosis RecA intein (Mycobacterium tuberculosis, UniProt P9WHJ3)
- Sequence (P9WHJ3 with tags, fused parts or gaps): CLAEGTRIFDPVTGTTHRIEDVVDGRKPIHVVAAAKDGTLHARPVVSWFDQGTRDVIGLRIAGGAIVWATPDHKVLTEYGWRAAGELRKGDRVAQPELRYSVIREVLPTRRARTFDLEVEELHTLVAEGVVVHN
Provide the recorded IC50 for the entries that follow.

// query IC50 value for entry N#CCSc1ccc(C#N)cc1 [Compound 24]
11 µM

// query IC50 value for entry CC1(C)CC(=O)c2c(S(C)(=O)=O)sc(C(=O)OCc3ccccc3)c2C1 [Compound 30]
5 µM

// query IC50 value for entry O=C(c1c[nH]c(C(=O)C(Cl)(Cl)Cl)c1)c1ccc(Cl)cc1Cl [Compound 62]
< 5 µM

// query IC50 value for entry C=CCn1c(Sc2ncnc3c2sc(=S)n3CC=C)nnc1-c1ccccc1 [Compound 27]
2 µM

// query IC50 value for entry O=C(Oc1cc(OC(=O)c2ccco2)cc(OC(=O)c2ccco2)c1)c1ccco1 [Compound 75]
< 5 µM

// query IC50 value for entry O=C(Oc1ccc(Cl)cc1)c1snnc1-c1ccccc1 [Compound 23]
3 µM

// query IC50 value for entry Cc1nn(C(N)=S)c(O)c1C(c1cccc(Cl)c1Cl)C(C#N)C#N (stereo not shown) [Compound 81]
12 µM

// query IC50 value for entry CS(=O)(=O)c1cc(C(F)(F)F)cc(S(C)(=O)=O)c1S(C)(=O)=O [Compound 3]
10 µM

// query IC50 value for entry O=C(CCl)c1ccc(Cc2ncc(C(F)(F)F)cc2Cl)s1 [Compound 57]
< 5 µM

// query IC50 value for entry O=C(Nc1ccc(F)cc1)c1nnsc1S(=O)(=O)c1ccc(Cl)cc1 [Compound 12]
3 µM

// query IC50 value for entry O=C(c1nnsc1[S+]([O-])c1ccc(Cl)cc1)N1CCCCC1 (stereo not shown) [Compound 11]
4 µM

// query IC50 value for entry O=C(c1c[nH]c(C(=O)C(Cl)(Cl)Cl)c1)c1cccc(Cl)c1Cl [Compound 59]
< 5 µM

// query IC50 value for entry O=S(=O)(c1cccc(C(F)(F)F)c1)c1snnc1-c1ccccc1 [Compound 35]
1 µM

// query IC50 value for entry COc1ccc(NC(=O)C(Cl)=C(Cl)[S+]([O-])Cc2ccccc2)cn1 (stereo not shown) [Compound 9]
10 µM

// query IC50 value for entry CCOC(=O)CSc1nc2c(c(-c3cccs3)c1C#N)CN(C)CC2 [Compound 56]
< 35 µM

// query IC50 value for entry CCCN(CCC)S(=O)(=O)c1ccc(C(=O)SCC(=O)OCC)cc1 [Compound 2]
8 µM

// query IC50 value for entry c1ccc(-c2cnc3nonc3n2)cc1 [Compound 74]
< 5 µM

// query IC50 value for entry CSC(Nc1ccc(F)cc1)=C(C#N)C(=O)c1ccco1 [Compound 22]
3 µM

// query IC50 value for entry O=C1CSC(c2ccc(Cl)cc2)C(=O)N1c1ccc(C(F)(F)F)cc1 (stereo not shown) [Compound 8]
5 µM

###

Provide the recorded pIC50 for the entries that follow.
- assayed.target: M. tuberculosis RecA intein (Mycobacterium tuberculosis)
- Sequence (P9WHJ3 with tags, fused parts or gaps): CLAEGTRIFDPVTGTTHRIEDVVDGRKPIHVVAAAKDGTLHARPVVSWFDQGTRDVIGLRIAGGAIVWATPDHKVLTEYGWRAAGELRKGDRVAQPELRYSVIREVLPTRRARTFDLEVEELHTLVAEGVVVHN
Conceptually, pIC50 converts a concentration in mol/L into minus its log10.

// query pIC50 value for entry `O=C(Nn1c(C2CCCCC2)nc2ccccc2c1=O)c1cc([N+](=O)[O-])cc([N+](=O)[O-])c1Cl`
6.00

// query pIC50 value for entry `O=C(Nc1ccccc1)c1nnsc1S(=O)(=O)c1ccc(Cl)cc1`
5.10

// query pIC50 value for entry `O=C(Oc1ccc(C=Nc2ccc(F)cc2)cc1)c1cccs1`
4.89

// query pIC50 value for entry `CCOC(=O)c1nnc(-c2ccccc2)nc1Sc1ccccc1C(=O)OC`
5.70

// query pIC50 value for entry `O=S(=O)(Cc1cccc(C(F)(F)F)c1)c1snnc1-c1ccccc1`
5.30

// query pIC50 value for entry `O=[N+]([O-])c1cc(C(F)(F)F)cc([N+](=O)[O-])c1Sc1nc2ccccc2[nH]1`
4.82

// query pIC50 value for entry [O-][S+](c1ccc(C(F)(F)F)cc1)c1cnn2c(Cl)nnc2c1 (stereo not drawn)
5.30

// query pIC50 value for entry `O=C(Sc1ccccc1)c1ccc2ncsc2c1`
5.10

// query pIC50 value for entry Oc1cc2c(cc1C(c1ccc(Cl)c(Cl)c1)N1CCCC1)OCO2 (stereo not drawn)
5.30

// query pIC50 value for entry `COC(=O)c1sc(S(C)(=O)=O)c(C#N)c1-c1cc(C(C)(C)C)oc1C`
5.40

// query pIC50 value for entry `CC(=O)c1cc([N+](=O)[O-])c(Sc2ccc(Cl)cc2)s1`
5.30

// query pIC50 value for entry N#CC1(C#N)C(c2cccc(I)c2)C(C(N)=O)N2C=Cc3ccccc3C21 (stereo not drawn)
4.70

// query pIC50 value for entry O=C(CCl)N1CCN2C(=O)c3ccccc3C12c1ccc(Cl)cc1 (stereo not drawn)
5.40

// query pIC50 value for entry `O=C(OCn1ncc(Cl)c(Cl)c1=O)c1cccc(C(F)(F)F)c1`
6.10

// query pIC50 value for entry CC1(C)CC(=O)C2(C(=O)C1)C(c1ccc(Cl)cc1Cl)C2(C#N)C#N (stereo not drawn)
5.30

// query pIC50 value for entry `N#CC1(C#N)C(c2ccccc2Cl)C1(C#N)C#N`
5.10

These measurements were taken from patent US7553832B2.
